Test system: DFO2036
Assay: qHTS profiling for inhibitors of Plasmodium falciparum proliferation (AID 504749); also: nearly all actives have a fitted effect of over 60% in size; also: potency is read from the fitted curve at half-maximal effect
Conditions: P. falciparum in erythrocytes, SYBR Green DNA, 72 h; series mostly up to 28.7 µM
Method: NIH National Institute of Allergy and Infectious Diseases [NIAID] NIH Chemical Genomics Center [NCGC] […] Because mature erythrocytes lack DNA, only Plasmodium-derived DNA is detected. NCGC Assay Protocol Summary: The SYBR Green viability assay was adapted from a method described previously (Plouffe et al., 2008). […] The following morning, fluorescence intensity at 485(14) nm excitation and 535(25) nm emission wavelengths was measured on an EnVision (Perkin Elmer) plate reader. […]
Results filed as inconclusive are left out. Active and inactive are the calls of the source. Calls follow the shape of the dose curve; as a rule, active = well fitted inhibition curve with a large enough effect; inconclusive = small, poorly fitted or top-dose-only effect; inactive = flat fitted curve, though single readings scatter.
Outcome measure: Potency

Example molecules with recorded Potency:
COCCCOc1ccnc(CS(=O)c2nc3ccccc3[nH]2)c1C (centres undefined)	inactive
CCOC(=O)c1c(C)n(C)c2ccc(O)cc12	inactive
O=C(CS(=O)Cc1ccco1)NCC=CCOc1cc(CN2CCCCC2)ccn1 (centres undefined)	inactive
C=CCc1cc(OC)c(O)c(C(=O)NCCO)c1	inactive
CC1(C)CCC(C)(C)c2cc(NC(=O)c3ccc(C(=O)O)cc3)ccc21	inactive

Dear colleague, I am looking for the recorded Potency of the following molecule: Nc1nc(Cl)nc2c1ncn2[C@H]1C[C@H](O)[C@@H](CO)O1
inactive

Dear colleague, I am looking for the recorded Potency of the following molecule: Cc1ncc([N+](=O)[O-])n1CC(C)O (centres undefined)
inactive

Dear colleague, I am looking for the recorded Potency of the following molecule: COc1ccc2cc([C@H](C)C(=O)O)ccc2c1
inactive

Dear colleague, I am looking for the recorded Potency of the following molecule: CN(C)c1ccc2nc3ccc(=[N+](C)C)cc-3sc2c1
70.8 nM (active)

---

system: Tov-21-G; experiment: Primary qHTS to identify gynecologic anti-cancer compounds using libraries of approved drugs and bioactive compounds (AID 1345084); conditions: Gynecologic cancer cell panel viability, ATPlite luminescence, 48 h; series mostly up to 57.5 µM; also: nearly all actives have a fitted effect of over 55% in size
Records with an inconclusive call do not appear. Active and inactive are the calls of the source. Calls follow the shape of the dose curve; as a rule, active = well fitted cell-killing curve with a large enough effect; inconclusive = small, poorly fitted or top-dose-only effect, or effect the other way; inactive = flat fitted curve, though single readings scatter.
Result category, one only: active, inactive

Cn1c(NCCN(CCO)CCCc2ccc([N+](=O)[O-])cc2)cc(=O)n(C)c1=O	inactive
c1cnc2cc3c(cc2n1)C1CNCC3C1	inactive
CCCCc1ccc2nc(NC(=O)OC)[nH]c2c1	active

Dear all, I need the recorded test outcome for Cc1cccc(CN2CCN(C(c3ccccc3)c3ccc(Cl)cc3)CC2)c1 (stereo not given) , thank you.
inactive

Dear all, I need the recorded test outcome for CNC[C@H](O)c1ccc(O)c(O)c1 , thank you.
inactive

---

target: Glucocorticoid receptor (Homo sapiens) (UniProt P04150); assay: GR-EFC Redistribution (AID 451); settings: CHO-K1 GR-EFC translocation, beta-gal luminescence, 2 h; also: potency is read from the fitted curve at half-maximal effect
Sequence (P04150 whole entry, looked up): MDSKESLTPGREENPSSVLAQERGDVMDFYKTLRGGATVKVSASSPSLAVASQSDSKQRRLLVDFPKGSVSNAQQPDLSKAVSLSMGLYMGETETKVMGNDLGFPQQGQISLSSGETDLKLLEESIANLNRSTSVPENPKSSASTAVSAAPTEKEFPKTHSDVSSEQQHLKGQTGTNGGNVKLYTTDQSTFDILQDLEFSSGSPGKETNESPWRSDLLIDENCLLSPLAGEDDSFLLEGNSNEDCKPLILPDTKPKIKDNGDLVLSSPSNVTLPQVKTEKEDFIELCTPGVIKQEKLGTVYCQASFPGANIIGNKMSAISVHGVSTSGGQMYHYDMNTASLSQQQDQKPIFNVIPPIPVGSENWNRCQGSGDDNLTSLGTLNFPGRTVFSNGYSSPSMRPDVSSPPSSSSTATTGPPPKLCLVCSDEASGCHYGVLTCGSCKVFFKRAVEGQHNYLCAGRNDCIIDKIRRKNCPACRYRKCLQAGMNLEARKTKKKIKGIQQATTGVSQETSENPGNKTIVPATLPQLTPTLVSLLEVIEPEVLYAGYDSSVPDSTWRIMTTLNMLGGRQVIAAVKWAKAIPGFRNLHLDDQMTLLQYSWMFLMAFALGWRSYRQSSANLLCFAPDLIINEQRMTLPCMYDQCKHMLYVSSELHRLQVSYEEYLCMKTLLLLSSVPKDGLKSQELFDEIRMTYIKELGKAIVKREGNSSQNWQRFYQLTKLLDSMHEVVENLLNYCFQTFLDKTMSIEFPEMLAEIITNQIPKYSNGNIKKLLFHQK
Active and inactive are the calls of the source. The call rests on the fitted dose curve.
Outcome measure: Potency

Example molecules with recorded Potency:
CN1C(C(=O)Nc2ccccn2)=C(O)c2sccc2S1(=O)=O	> 20.6 µM (inactive)
CCOc1cc(CC(=O)N[C@@H](CC(C)C)c2ccccc2N2CCCCC2)ccc1C(=O)O	> 20.6 µM (inactive)

Dear colleague, I am looking for the recorded Potency of the following molecule: COc1ccccc1N1CCN(CCN(C(=O)C2CCCCC2)c2ccccn2)CC1
> 46 µM (inactive)

Dear colleague, I am looking for the recorded Potency of the following molecule: Cc1cc(C2CCCCC2)n(O)c(=O)c1
> 20.6 µM (inactive)

---

test system: CP250; test: qHTS profiling for inhibitors of Plasmodium falciparum proliferation (AID 504749); also: nearly all actives have a fitted effect of over 60% in size; conditions: P. falciparum in erythrocytes, SYBR Green DNA, 72 h; series mostly up to 28.7 µM
Inconclusive results are not listed. Activity calls are given as the source filed them. Calls follow the shape of the dose curve; as a rule, active = well fitted inhibition curve with a large enough effect; inconclusive = small, poorly fitted or top-dose-only effect; inactive = flat fitted curve, though single readings scatter.
Result category, one only: T for active, F for inactive

Use the examples below as a reference point.
O=C(NC(Cc1cc(=O)[nH]c2ccccc12)C(=O)O)c1ccc(Cl)cc1 (configuration not stated)	F
Nc1cccc2c1CN(C1CCC(=O)NC1=O)C2=O (configuration not stated)	F
N=C(N=C(N)N)N1CCOCC1	F

Next item in the queue.
Dear all, I need the recorded test outcome for CN1C(C(=O)Nc2ccccn2)=C(O)c2sccc2S1(=O)=O , thank you.
F

---

assay: Quantitative High-Throughput drug screen in 47 multiple myeloma cell lines against the NCATS MIPE library collection: PE2_PLB cell viability assay (AID 1919869); settings: PE2_PLB myeloma cells viability, ATP luminescence, 48 h; series mostly up to 45.8 µM; also: nearly all actives have a fitted effect of over 35% in size
Results filed as inconclusive are left out. Calls of active or inactive are those of the source. Calls come from the whole dose curve; as a rule, active = well fitted cell-killing curve with a large enough effect; inconclusive = small, poorly fitted or top-dose-only effect, or effect the other way; inactive = no such curve, though single readings can be large or run the other way.
Result category, one only: active, inactive

Use the examples below as a reference point.
O=C(NOCC1CC1)c1ccc(F)c(F)c1Nc1ccc(I)cc1Cl	active
CCCCC(CC)COC(=O)C(C#N)=C(c1ccccc1)c1ccccc1 (stereo unspecified)	inactive
S=c1nc[nH]c2nc[nH]c12	active
CN(C)c1ccc2nc3ccc(=[N+](C)C)cc-3sc2c1	active
Cc1nc(Nc2ncc(C(=O)Nc3c(C)cccc3Cl)s2)cc(N2CCN(CCO)CC2)n1	active

Next item in the queue.
Dear all, I need the recorded test outcome for COc1ccc(C2(C#N)CCC(C(=O)O)CC2)cc1OC1CCCC1 (stereo unspecified) , thank you.
inactive

---

assay: qHTS drug screen for cell cycle checkpoint inhibitors in PARPi-resistant BRCA-mutant ovarian cancer cell lines. (AID 1963452); conditions: PEO1/OlaR viability, CellTiter-Glo luminescence, 96 h; measured here: PEO4 Z-AUC; stronger effect = lower value
Item-by-item account of Z-AUC
Answer with the value's number alone.

O=C(NC(Cc1cc(=O)[nH]c2ccccc12)C(=O)O)c1ccc(Cl)cc1 (centres undefined)	1.04
C=C(c1ccc(C(=O)O)cc1)c1cc2c(cc1C)C(C)(C)CCC2(C)C	0.161
NNc1nncc2ccccc12	0.892

Please turn your attention to the following entry.
Dear colleague, I am looking for the recorded Z-AUC of the following compound: CCC1=C(C)CN(C(=O)NCCc2ccc(S(=O)(=O)NC(=O)NC3CCC(C)CC3)cc2)C1=O (centres undefined)
0.144

---

test system: CP191; test: qHTS profiling for inhibitors of Plasmodium falciparum proliferation (AID 504749); also: nearly all actives have a fitted effect of over 60% in size; details: P. falciparum in erythrocytes, SYBR Green DNA, 72 h; series mostly up to 28.7 µM
Records with an inconclusive call do not appear. Calls of active or inactive are those of the source. The call rests on the fitted dose curve; in most records, active means well fitted inhibition curve with a large enough effect; inconclusive means small, poorly fitted or top-dose-only effect; inactive means flat fitted curve, though single readings scatter.
Result category, one only: active, inactive

Cc1cc(C2CCCCC2)n(O)c(=O)c1	active
NNc1nncc2ccccc12	active
O=P(O)(O)C(O)(Cn1ccnc1)P(=O)(O)O	inactive

Next item in the queue.
Dear all, I need the recorded test outcome for CC[C@]1(O)C[C@H]2CN(CCc3c([nH]c4ccccc34)[C@@](C(=O)OC)(c3cc4c(cc3OC)N(C=O)[C@H]3[C@@](O)(C(=O)OC)[C@H](OC(C)=O)[C@]5(CC)C=CCN6CC[C@]43[C@@H]65)C2)C1 , thank you.
active

---

assay: qHTS of pediatric cancer cell lines to identify multiple opportunities for drug repurposing: Primary screen for A673 cells (AID 1347092); conditions: A673 Ewing sarcoma viability, CellTiter-Glo ATP luminescence, 48 h; series mostly up to 46 µM; also: nearly all actives have a fitted effect of over 45% in size; also: potency is read from the fitted curve at half-maximal effect
Inconclusive results are not listed. Activity calls are given as the source filed them. Calls follow the shape of the dose curve; as a rule, active = well fitted cell-killing curve with a large enough effect; inconclusive = small, poorly fitted or top-dose-only effect; inactive = no such curve, though single readings can be large or run the other way.
Outcome measure: Potency

O=c1ccc2ccc(O)c(O)c2o1	5.9 µM (active)
CCOC(=O)C(C)Oc1cccc2c(=O)n(CC(=O)Nc3ccc4c(c3)OCCO4)ccc12 (stereo not given)	7.43 µM (active)
COc1cc2c(cc1OC)C1CC(=O)C(CC(C)C)CN1CC2 (stereo not given)	inactive
NNc1nncc2ccccc12	inactive

Dear colleague, I am looking for the recorded Potency of the following compound: Cc1cccc(C#Cc2ccccc2)n1
inactive

---

test: Quantitative High-Throughput drug screen in 47 multiple myeloma cell lines against the NCATS MIPE library collection: PCM6_Riken cell viability assay (AID 1919870); conditions: CellTiter-Glo ATP, 48 h; series mostly up to 45.8 µM; also: nearly all actives have a fitted effect of over 30% in size
Records with an inconclusive call do not appear. The source made the active and inactive calls. The call rests on the fitted dose curve; in most records, active means well fitted cell-killing curve with a large enough effect; inconclusive means small, poorly fitted or top-dose-only effect, or effect the other way; inactive means no such curve, though single readings can be large or run the other way. Peptide text beside a SMILES is read from it.
Result category, one only: 1 (active), -1 (inactive)

CN(C)[C@@H](CCOc1cccc2ccccc12)c1ccccc1	1

Dear all, I need the recorded test outcome for CCCCCCCCCCCCCCCCCCCCCCO , thank you.
-1

Dear all, I need the recorded test outcome for COC(=O)[C@H](Cc1ccccc1)NC(=O)[C@@H](N)CC(=O)O (H-Asp-Phe-OMe) , thank you.
-1

Dear all, I need the recorded test outcome for Cc1nc2n(c(=O)c1CCN1CCC(c3noc4cc(F)ccc34)CC1)CCCC2 , thank you.
-1

Dear all, I need the recorded test outcome for CCOC(=O)C(C)Oc1cccc2c(=O)n(CC(=O)Nc3ccc4c(c3)OCCO4)ccc12 (centres undefined) , thank you.
-1

Dear all, I need the recorded test outcome for O=Nc1c(-c2c(O)[nH]c3cc(Br)ccc23)[nH]c2ccccc12 , thank you.
1

Dear all, I need the recorded test outcome for c1ccc2[nH]c(-c3cscn3)nc2c1 , thank you.
-1

Value source: PubChem BioAssay (NCATS)
